Target: Chimeric OX40 construct 1547 (human; mouse) (UniProt P43489)
Sequence (P43489 other isoform, or with tags, fused parts or gaps mutant, form in doubt): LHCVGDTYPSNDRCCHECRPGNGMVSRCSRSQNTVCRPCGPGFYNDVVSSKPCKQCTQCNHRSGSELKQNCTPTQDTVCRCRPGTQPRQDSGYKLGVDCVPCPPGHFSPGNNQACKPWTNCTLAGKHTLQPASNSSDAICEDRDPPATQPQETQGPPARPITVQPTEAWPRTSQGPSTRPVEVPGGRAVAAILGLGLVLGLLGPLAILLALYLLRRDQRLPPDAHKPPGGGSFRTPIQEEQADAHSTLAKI
Assay: flow cytometry, 293-F cells transfected with the construct
endpoint: relative MFI (fold over isotype control)

Solved entries:
binder: 1166/1167 (antibody, V domains shown) VH: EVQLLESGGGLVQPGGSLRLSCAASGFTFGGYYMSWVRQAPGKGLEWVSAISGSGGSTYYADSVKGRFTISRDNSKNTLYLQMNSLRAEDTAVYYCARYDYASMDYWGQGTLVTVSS VL: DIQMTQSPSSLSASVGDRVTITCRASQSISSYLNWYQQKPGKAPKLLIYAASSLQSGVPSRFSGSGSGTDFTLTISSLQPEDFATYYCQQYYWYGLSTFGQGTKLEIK
relative MFI (fold over isotype control): 15.2

binder: 1514/1515 (antibody, V domains shown) VH: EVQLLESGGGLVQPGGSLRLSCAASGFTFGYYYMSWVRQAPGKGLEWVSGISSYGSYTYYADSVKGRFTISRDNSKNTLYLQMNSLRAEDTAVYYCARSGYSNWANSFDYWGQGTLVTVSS VL: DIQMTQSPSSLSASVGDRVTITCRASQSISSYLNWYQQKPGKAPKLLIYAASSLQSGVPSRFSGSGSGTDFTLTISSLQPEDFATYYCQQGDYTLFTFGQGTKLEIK
relative MFI (fold over isotype control): 1.1

binder: 1526/1527 (antibody, V domains shown) VH: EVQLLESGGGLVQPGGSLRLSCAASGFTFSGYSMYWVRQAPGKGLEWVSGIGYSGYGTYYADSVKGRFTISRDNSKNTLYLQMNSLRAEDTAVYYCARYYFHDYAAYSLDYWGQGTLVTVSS VL: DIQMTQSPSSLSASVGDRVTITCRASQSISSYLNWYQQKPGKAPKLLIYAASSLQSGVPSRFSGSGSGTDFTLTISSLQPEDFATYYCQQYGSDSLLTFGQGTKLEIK
relative MFI (fold over isotype control): 1

Now consider the entry below.
QUERY: # get_value(readout='relative MFI (fold over isotype control)', item= 1524/1525 (antibody, V domains shown) VH: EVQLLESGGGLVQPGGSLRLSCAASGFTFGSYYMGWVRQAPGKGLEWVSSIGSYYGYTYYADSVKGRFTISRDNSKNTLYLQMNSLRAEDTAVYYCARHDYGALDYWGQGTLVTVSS VL: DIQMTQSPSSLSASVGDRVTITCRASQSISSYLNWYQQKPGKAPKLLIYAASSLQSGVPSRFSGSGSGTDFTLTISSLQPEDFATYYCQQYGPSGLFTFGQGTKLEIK )
RESULT: 1
